The compounds listed here are annotated with their % stabilization in screen at 50 µM.
Molecular target: human thymidylate synthase (TS) (Homo sapiens, UniProt P04818)
Construct: screening in live, non-engineered cells expressing thymidylate synthase; endogenous in cells; host or cells: K562 (human myelogenous leukemia) cells
Sequence (P04818 2-313 limits assumed): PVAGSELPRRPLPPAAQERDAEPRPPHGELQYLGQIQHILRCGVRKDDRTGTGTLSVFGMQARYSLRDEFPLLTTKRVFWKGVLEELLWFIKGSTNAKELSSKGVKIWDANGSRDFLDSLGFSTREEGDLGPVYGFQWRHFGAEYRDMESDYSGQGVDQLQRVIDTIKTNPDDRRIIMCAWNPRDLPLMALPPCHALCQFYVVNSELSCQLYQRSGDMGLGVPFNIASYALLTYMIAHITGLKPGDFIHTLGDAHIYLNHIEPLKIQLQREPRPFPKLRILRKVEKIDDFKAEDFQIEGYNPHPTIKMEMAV
Assay: CETSA primary screen / single-concentration retest, AlphaScreen, live K562 cells
Format: cell-based
Conditions: K562, 2 h, 50 μM compound, 2 h preincubation, 50 °C; 0% = DMSO, 100% = 100 nM raltitrexed; read-out: % stabilization in screen

{"COMPOUND": "CN1CCN(c2c(F)cc3c(=O)c(C(=O)O)cn(CCF)c3c2F)CC1 [CBK201030, Fleroxacin, reference compound]", "ASSAY_SYSTEM": "human thymidylate synthase (TS) (Homo sapiens, UniProt P04818)", "% stabilization in screen at 50 µM, %": 66}
{"COMPOUND": "C#Cc1cn([C@H]2C[C@H](O)[C@@H](CO)O2)c(=O)[nH]c1=O [CBK201207, 5-ethynyl-2′-deoxyuridine, reference compound]", "ASSAY_SYSTEM": "human thymidylate synthase (TS) (Homo sapiens, UniProt P04818)", "% stabilization in screen at 50 µM, %": 102}
{"COMPOUND": "CC(=O)OCC(=O)[C@@]12OC3(CCCC3)O[C@@H]1C[C@H]1[C@@H]3CCC4=CC(=O)C=C[C@]4(C)[C@@]3(F)[C@@H](O)C[C@@]12C [CBK200950, Amcinonid, reference compound]", "ASSAY_SYSTEM": "human thymidylate synthase (TS) (Homo sapiens, UniProt P04818)", "% stabilization in screen at 50 µM, %": 56}
